Values from patent US20110262922

assayed_system: Insulin receptor (IR) (Homo sapiens, UniProt P06213-2;P06213-2 P06213-2:28-746,P06213-2:751-944)
Sequence (P06213 other isoform, or with tags, fused parts or gaps, chain 1 of 2): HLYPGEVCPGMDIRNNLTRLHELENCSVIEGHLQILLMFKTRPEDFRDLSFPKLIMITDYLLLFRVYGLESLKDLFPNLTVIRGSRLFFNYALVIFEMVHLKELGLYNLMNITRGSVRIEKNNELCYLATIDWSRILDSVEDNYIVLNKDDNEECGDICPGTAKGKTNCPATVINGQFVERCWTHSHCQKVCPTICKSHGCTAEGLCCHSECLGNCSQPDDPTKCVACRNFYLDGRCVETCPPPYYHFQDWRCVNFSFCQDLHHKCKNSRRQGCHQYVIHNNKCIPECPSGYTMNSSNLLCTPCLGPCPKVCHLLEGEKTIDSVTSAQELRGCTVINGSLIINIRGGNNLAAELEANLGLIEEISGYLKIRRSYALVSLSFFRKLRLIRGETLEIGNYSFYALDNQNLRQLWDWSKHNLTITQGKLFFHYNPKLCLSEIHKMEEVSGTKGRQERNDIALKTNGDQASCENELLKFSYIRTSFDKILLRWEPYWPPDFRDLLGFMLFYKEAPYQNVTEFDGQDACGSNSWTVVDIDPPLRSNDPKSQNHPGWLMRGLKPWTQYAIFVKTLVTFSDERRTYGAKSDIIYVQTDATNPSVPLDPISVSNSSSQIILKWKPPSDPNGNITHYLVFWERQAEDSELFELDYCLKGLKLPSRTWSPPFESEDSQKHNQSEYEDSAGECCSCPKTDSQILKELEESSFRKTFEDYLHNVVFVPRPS
Sequence (P06213 763-956, chain 2 of 2): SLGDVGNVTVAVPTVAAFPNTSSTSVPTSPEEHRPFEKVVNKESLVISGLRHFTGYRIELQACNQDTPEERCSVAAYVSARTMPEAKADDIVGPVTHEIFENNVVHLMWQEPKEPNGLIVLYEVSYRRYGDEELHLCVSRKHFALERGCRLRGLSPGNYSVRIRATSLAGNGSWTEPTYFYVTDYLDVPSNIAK
protocol_summary: filter; +/-0.28; same buffer, 5 mM MgCl2, 37 C
experimental_setup: tags: His-tagged; R&D Systems Cat# 1544-IR; chain copies: 2; label: 5'-32P
property_measured: Kd (nM)
Give the quantity in nM, number only.

## Task Need Kd, item IR-25 (ssDNA) DNA: GAGTGACCGTCTGCCTGAGATCCGACTGTTTACTGTTTAACAGCCGGCTGATGGACCCAGCCACACCACCAGCC
## Result 13.3
